Hey, just so you know, these numbers are from patent US10689378B2.

System: H3K27 methylation in G401 cell
assay.text: ELISA (H3K27 methylation) assay in G401 cells
Format: cell-based, human
measurement.conditions: Homo sapiens, G-401, read-out: (c) IC50, ELISA Qualified
IC50 by entry:

Use the examples below as a reference point.
> print(dat)
                               entry.smiles                    study.system   result
1  COc1cc(F)ccc1CNc1ccc(-c2ccc(S(=O)(=O)C3CCN(C)CC3)cc2)c2nncn12  H3K27 methylation in G401 cell   223 nM
2   COc1cc(F)ccc1CNc1ccc(-c2ccncc2)c2nncn12  H3K27 methylation in G401 cell   299 nM
3  COc1ccccc1CNc1ccc(-c2ccc(NC(C)=O)cc2)c2nncn12  H3K27 methylation in G401 cell   779 nM
4  COc1cccc(F)c1CNc1ccc(-c2cccnc2F)c2nncn12  H3K27 methylation in G401 cell  33.3 nM

Now consider the entry below.
Return reported IC50; argument: COc1cccc(F)c1CNc1ccc(-c2ccncc2)c2nncn12
27.4 nM

====

study.system: EED (1-441)-His protein (Homo sapiens, UniProt O75530)
Construct: 30 nM EED (1-441)-His protein
Sequence (O75530 whole entry): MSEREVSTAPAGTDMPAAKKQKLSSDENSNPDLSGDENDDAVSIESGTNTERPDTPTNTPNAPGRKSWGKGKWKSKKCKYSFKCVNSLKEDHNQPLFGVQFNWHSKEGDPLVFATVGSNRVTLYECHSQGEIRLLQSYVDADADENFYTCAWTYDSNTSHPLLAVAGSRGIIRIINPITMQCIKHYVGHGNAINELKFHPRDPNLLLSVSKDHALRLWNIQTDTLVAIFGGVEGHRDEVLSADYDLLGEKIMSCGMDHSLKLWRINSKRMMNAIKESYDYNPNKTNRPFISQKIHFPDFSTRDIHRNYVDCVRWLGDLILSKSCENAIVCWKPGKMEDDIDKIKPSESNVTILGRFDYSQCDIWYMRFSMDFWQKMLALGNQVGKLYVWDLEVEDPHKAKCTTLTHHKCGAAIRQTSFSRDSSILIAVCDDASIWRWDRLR
assay.text: EED-H3K27Me3 peptide competition binding assay by AlphaScreen
measurement.conditions: read-out: (a) IC50, EED Alphascreen binding Qualified
measured.metric: pIC50
// pIC50 here means minus log10 of the molar concentration (mol/L)

A selection of reference data follows.
> print(dat)
                               entry.smiles  numeric.value
1  COc1cc(F)ccc1CNc1ccc(-c2ccc(C(=O)N3CCCC3)cc2)c2nncn12           6.98
2  COc1ccc(F)c(CNc2ccc(-c3cccnc3)c3nncn23)c1           6.17
3  COc1cccc(F)c1CNc1ccc(-c2cncc(N3CCCC3=O)c2)c2nncn12           7.87

Next item in the queue.
For the molecule shown here, COc1ccccc1CNc1ccc(-c2ccc(S(=O)(=O)NCCO)cc2)c2nncn12 , give the reported pIC50.
7.30

====

System: H3K27 methylation in G401 cell
assay.text: ELISA (H3K27 methylation) assay in G401 cells
Assay type: cell-based, human
measurement.conditions: Homo sapiens, G-401, read-out: (c) IC50, ELISA Qualified
measured.metric: pIC50
Kindly note that pIC50 refers to -log10 of the concentration in mol/L and answer with the value alone.

Some molecules with known pIC50 results, for comparison:
> print(dat)
                               entry.smiles  measured.metric  numeric.value
1  COc1ccccc1CNc1ccc(-c2ccc(S(=O)(=O)C(C)C)cc2)c2nncn12            pIC50           7.40
2  COc1cccc(F)c1CNc1ccc(-c2cccc(S(C)(=O)=O)c2)c2nncn12            pIC50           7.46

Form: Entry = COc1ccccc1CNc1ccc(-c2ccc(CN(C)C)cc2)c2nncn12 | System = H3K27 methylation in G401 cell | pIC50 = ____
7.76

Fill in the recorded pIC50 for this molecule, with H3K27 methylation in G401 cell as test system: COc1cc(F)ccc1CNc1ccc(-c2ccc(N3CCN(C(C)C)CC3)nc2)c2nncn12
6.30

Record lookup: for H3K27 methylation in G401 cell, what pIC50 belongs to COc1cccc(F)c1CNc1ccc(-c2ccc(OCCO)cc2)c2nncn12 ?
7.37

// fetch H3K27 methylation in G401 cell pIC50 for COc1cccc(F)c1CNc1ccc(-c2ccc(S(C)(=O)=O)cc2)c2nncn12
7.58

Kindly state the measured pIC50 obtained for COc1ccccc1CNc1ccc(-c2ccc(N3CCN(C)CC3)cc2)c2nncn12 with H3K27 methylation in G401 cell.
7.37

Value wanted: pIC50 (H3K27 methylation in G401 cell) of entry COc1ccc(F)c(CNc2ccc(-c3cccnc3)c3nncn23)c1
6.52

Record lookup: for H3K27 methylation in G401 cell, what pIC50 belongs to COc1cc(F)ccc1CNc1ccc(-c2cnc(N3CCN(C(C)C)CC3)c(Cl)c2)c2nncn12 ?
6.11

Observed pIC50 on H3K27 methylation in G401 cell for COc1cncc(-c2ccc(NCc3c(F)cccc3OC)n3cnnc23)c1 , please.
7.22

pIC50 of COc1ccccc1CNc1ccc(-c2cncc(S(C)(=O)=O)c2)c2nncn12 on H3K27 methylation in G401 cell?
6.79

Form entry - test system: H3K27 methylation in G401 cell; read-out: pIC50; molecule: COc1ccccc1CNc1ccc(-c2cc(F)c(CN3CCCCC3)c(F)c2)c2nncn12
6.95
